Molecular target: hERG1 (Homo sapiens, UniProt Q12809)
Construct: expressed in transfected cells; host or cells: HEK 293
Sequence (Q12809 whole entry): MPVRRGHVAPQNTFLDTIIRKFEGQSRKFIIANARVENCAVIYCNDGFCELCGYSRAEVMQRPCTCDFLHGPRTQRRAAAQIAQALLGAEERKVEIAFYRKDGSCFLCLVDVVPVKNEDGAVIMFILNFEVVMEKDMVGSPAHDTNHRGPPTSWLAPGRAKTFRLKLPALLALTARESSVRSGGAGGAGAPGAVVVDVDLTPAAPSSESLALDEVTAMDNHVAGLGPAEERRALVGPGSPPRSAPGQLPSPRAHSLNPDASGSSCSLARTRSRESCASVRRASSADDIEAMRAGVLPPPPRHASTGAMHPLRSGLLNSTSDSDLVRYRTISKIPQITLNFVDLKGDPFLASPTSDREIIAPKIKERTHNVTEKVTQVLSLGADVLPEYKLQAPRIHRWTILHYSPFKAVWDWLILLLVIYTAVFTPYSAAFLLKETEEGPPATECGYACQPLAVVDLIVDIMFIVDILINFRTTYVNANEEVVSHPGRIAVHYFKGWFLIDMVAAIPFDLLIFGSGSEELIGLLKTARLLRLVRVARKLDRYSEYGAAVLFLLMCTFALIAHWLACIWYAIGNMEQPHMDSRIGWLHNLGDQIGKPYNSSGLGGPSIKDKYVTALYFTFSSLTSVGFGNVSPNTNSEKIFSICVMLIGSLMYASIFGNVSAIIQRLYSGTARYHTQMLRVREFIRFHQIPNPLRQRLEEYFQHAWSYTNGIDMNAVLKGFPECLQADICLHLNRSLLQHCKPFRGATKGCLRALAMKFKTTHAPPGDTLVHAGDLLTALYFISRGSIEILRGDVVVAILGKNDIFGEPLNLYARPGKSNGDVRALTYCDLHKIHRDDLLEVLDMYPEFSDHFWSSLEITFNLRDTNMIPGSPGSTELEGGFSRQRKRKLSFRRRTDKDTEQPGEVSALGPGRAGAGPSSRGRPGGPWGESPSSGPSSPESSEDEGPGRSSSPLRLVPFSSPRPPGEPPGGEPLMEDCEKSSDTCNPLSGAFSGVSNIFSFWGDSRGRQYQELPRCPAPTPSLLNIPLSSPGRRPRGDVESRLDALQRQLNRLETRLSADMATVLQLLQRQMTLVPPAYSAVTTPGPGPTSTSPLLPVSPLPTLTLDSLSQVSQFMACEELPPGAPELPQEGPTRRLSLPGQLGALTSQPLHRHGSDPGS
Experiment: Whole cell patch-clamp of hERG1 currents in transfected HEK 293 cells
Type: cell-based
Set-up: unit not given here
Conditions: Conc. 50 µM; shift in voltage-dependence of inactivation
outcomeMeasure: Inactivation ΔV0.3

Worked set:
chemSmiles: C[C@H](NS(=O)(=O)c1ccc(N)cc1)C(=O)NC(=O)Nc1cc(C(F)(F)F)ccc1O
systemName: hERG1 (Homo sapiens, UniProt Q12809)
Inactivation ΔV0.3: +10±0.6
//
chemSmiles: COCOc1ccc(C(F)(F)F)cc1NC(N)=O
systemName: hERG1 (Homo sapiens, UniProt Q12809)
Inactivation ΔV0.3: 0.7±3.7

Okay, next one:
Assign Inactivation ΔV0.3 to the following record: COCOc1ccc(C(F)(F)F)cc1NC(=O)NC(=O)[C@H](C)N(Cc1ccccc1)Cc1ccccc1
+4±0

Values from paper PMC4156305
